B1: Neutrophil cytosol factor 2 (Homo sapiens), P19878 (parent)
chain: MSLVEAISLWNEGVLAADKKDWKGALDAFSAVQDPHSRICFNIGCMYTILKNMTEAEKAFTRSINRDKHLAVAYFQRGMLYYQTEKYDLAIKDLKEALIQLRGNQLIDYKILGLQFKLFACEVLYNIAFMYAKKEEWKKAEEQLALATSMKSEPRHSKIDKAMECVWKQKLYEPVVIPVGKLFRPNERQVAQLAKKDYLGKATVVASVVDQDSFSGFAPLQPQAAEPPPRPKTPEIFRALEGEAHRVLFGFVPETKEELQVMPGNIVFVLKKGNDNWATVMFNGQKGLVPCNYLEPVELRIHPQQQPQEESSPQSDIPAPPSSKAPGRPQLSPGQKQKEEPKEVKLSVPMPYTLKVHYKYTVVMKTQPGLPYSQVRDMVSKKLELRLEHTKLSYRPRDSNELVPLSEDSMKDAWGQVKNYCLTLWCENTVGDQGFPDEPKESEKADANNQTTEPQLKKGSQVEALFSYEATQPEDLEFQEGDIILVLSKVNEEWLEGECKGKVGIFPKVFVEDCATTDLESTRREV

Variants of: B1
Settings: with goga2_human GOLGA2, Q08379
Sequence (Q08379 whole entry): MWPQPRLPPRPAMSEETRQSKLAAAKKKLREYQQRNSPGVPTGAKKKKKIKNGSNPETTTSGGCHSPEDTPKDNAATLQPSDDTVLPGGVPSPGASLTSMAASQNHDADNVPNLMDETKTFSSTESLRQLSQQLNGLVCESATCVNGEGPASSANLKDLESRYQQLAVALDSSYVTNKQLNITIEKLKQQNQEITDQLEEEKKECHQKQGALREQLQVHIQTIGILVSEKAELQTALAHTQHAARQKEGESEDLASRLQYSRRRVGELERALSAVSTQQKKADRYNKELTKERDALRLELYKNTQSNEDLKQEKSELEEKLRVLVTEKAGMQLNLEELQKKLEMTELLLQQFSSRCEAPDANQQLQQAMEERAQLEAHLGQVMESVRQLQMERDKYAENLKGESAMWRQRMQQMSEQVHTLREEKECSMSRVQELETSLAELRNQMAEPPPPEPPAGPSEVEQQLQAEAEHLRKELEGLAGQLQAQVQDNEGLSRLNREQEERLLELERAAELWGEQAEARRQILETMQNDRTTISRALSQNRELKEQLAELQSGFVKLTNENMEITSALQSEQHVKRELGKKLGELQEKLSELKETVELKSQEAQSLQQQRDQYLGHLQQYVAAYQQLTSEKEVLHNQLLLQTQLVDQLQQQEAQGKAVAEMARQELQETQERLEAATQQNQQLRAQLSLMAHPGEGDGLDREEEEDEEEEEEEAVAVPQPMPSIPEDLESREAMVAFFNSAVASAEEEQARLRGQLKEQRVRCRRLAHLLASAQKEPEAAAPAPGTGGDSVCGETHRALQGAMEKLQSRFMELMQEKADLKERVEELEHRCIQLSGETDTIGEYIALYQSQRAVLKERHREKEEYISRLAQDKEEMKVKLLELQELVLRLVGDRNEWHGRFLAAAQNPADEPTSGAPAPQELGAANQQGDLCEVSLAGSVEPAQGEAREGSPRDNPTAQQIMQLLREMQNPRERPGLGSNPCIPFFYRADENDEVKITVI
endpoint: effect of a mutation on the interaction

mutantCode	endpoint	reportedValue
R395W	effect of a mutation on the interaction	with no effect
N419I	effect of a mutation on the interaction	with no effect
